Values were extracted from ChEMBL document CHEMBL1156514.

TARGET OR TEST SYSTEM: Mitogen-activated protein kinase 11 (Homo sapiens, UniProt Q15759, T106M)
Sequence (Q15759 whole entry T106M): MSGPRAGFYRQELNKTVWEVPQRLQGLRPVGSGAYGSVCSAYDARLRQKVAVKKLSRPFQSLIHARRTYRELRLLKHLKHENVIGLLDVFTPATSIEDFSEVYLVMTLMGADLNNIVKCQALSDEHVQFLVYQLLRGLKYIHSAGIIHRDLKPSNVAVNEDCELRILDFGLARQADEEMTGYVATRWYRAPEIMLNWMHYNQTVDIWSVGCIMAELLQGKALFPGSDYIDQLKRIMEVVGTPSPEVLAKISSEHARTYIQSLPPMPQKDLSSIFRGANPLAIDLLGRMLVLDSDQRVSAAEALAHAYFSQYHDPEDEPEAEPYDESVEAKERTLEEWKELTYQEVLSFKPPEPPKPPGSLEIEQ
TEST DETAILS: Inhibition of p38beta T106M mutant
pIC50: −log10 of the molar value.
ASSAY ENDPOINT: pIC50

> print(dat)
                  compound.structure.string                     target.or.test.system  numeric.result
1  CC(C)(C)N1CCC(c2cc(-c3ccc(F)cc3F)c3ccc(=O)n(-c4c(Cl)cccc4Cl)c3c2)CC1  Mitogen-activated protein kinase 11 (Homo sapiens, UniProt Q15759, T106M)            6.59
